meta.source: ChEMBL document CHEMBL1133828

// values below are reported pIC50
- tgt: DNA-dependent protein kinase catalytic subunit (Homo sapiens)
- Sequence (P78527 whole entry): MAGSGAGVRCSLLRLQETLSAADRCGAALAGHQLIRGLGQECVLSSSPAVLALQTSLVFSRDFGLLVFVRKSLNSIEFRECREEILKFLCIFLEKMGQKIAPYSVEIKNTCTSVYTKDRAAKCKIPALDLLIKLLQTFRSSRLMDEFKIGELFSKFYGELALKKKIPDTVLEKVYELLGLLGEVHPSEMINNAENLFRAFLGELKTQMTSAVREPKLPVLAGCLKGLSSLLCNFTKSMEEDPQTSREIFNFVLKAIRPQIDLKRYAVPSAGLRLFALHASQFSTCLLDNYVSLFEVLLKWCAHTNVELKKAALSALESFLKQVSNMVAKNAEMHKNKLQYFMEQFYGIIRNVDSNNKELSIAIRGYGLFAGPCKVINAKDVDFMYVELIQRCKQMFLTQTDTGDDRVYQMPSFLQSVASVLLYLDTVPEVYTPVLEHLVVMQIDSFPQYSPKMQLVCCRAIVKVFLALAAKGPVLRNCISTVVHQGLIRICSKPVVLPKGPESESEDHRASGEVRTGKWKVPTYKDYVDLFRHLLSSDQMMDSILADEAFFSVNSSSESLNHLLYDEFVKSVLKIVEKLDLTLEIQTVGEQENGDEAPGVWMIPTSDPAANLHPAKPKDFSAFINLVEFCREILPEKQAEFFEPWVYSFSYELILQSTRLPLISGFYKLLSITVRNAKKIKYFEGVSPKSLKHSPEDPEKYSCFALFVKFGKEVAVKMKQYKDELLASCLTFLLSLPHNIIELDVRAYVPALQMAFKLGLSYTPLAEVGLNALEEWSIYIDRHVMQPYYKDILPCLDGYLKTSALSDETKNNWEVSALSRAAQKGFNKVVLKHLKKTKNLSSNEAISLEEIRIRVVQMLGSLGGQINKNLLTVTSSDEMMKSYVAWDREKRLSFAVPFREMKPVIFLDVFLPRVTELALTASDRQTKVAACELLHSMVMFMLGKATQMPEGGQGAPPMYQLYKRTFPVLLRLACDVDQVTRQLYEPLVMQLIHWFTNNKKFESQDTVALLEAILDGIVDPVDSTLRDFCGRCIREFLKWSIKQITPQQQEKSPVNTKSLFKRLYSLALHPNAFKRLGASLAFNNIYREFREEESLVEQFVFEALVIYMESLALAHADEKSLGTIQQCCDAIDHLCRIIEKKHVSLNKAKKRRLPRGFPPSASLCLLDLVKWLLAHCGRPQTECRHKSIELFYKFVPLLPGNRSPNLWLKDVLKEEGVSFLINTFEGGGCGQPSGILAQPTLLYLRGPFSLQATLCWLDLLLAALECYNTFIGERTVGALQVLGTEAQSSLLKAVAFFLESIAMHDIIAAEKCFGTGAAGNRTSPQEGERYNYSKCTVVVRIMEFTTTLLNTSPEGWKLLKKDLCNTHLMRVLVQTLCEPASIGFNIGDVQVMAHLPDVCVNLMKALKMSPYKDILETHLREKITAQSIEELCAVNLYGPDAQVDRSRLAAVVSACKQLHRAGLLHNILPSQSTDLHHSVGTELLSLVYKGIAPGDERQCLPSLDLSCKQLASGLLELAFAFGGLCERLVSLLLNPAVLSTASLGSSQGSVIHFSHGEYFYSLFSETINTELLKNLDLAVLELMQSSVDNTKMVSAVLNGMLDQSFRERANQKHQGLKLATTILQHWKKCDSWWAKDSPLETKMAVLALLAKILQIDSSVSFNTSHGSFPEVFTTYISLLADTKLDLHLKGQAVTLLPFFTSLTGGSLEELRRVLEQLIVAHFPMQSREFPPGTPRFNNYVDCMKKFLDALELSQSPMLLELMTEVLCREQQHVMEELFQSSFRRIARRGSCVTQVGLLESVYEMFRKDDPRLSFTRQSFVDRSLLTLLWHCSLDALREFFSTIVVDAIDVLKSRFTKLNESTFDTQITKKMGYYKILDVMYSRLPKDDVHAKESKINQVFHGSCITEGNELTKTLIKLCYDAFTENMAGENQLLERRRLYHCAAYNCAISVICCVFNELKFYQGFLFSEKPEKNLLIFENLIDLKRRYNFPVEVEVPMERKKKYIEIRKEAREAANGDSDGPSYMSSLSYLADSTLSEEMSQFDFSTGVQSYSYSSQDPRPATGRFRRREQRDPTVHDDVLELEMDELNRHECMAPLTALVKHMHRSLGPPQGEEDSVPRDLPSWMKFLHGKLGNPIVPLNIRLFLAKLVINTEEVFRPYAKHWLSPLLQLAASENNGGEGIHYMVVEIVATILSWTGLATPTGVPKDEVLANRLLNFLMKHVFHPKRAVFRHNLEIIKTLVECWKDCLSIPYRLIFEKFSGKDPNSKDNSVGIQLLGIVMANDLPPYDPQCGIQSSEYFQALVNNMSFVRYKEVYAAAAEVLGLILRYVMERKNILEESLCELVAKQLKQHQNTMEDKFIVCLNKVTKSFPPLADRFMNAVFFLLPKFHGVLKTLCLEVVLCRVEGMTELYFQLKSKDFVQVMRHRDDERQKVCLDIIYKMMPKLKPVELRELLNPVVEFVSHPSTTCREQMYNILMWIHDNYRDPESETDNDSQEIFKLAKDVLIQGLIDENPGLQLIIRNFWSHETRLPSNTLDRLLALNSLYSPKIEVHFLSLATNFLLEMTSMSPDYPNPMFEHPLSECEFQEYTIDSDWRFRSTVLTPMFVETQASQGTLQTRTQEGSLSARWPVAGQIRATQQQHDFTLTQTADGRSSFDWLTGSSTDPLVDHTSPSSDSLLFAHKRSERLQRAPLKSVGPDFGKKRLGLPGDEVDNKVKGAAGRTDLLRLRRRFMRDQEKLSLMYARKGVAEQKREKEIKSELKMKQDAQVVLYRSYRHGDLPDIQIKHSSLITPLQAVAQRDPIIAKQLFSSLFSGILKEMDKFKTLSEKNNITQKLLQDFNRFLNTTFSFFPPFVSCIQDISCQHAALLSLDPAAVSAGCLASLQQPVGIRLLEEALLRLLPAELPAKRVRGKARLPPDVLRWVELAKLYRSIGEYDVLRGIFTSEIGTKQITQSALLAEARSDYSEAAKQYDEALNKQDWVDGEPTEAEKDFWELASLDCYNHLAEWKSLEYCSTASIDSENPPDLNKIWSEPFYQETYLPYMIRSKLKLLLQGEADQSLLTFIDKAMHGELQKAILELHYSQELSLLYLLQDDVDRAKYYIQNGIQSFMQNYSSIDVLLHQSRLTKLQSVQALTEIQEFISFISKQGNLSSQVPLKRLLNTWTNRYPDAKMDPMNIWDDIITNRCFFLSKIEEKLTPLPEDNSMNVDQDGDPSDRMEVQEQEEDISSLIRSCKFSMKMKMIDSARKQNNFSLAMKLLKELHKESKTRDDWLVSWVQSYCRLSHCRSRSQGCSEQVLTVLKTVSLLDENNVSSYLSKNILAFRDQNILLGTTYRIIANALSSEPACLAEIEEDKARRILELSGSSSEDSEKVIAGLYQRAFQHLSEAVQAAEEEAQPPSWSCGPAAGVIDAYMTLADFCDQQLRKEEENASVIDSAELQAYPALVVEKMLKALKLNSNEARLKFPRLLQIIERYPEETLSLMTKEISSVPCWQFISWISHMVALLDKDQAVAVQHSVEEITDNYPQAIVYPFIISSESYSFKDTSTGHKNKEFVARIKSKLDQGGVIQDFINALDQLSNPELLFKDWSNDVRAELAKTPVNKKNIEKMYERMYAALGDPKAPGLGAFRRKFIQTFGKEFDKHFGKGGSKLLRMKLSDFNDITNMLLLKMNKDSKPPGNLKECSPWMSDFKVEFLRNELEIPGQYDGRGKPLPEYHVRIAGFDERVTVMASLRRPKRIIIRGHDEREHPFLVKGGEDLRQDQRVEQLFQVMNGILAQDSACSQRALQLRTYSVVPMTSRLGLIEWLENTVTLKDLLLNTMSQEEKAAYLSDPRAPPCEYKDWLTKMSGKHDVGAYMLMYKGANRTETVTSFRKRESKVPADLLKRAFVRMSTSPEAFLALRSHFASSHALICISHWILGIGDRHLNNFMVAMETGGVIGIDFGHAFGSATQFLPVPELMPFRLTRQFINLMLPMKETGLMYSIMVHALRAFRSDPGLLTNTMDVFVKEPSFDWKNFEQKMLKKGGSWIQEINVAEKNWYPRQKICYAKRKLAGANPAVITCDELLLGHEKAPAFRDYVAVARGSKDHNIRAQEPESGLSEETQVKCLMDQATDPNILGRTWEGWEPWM
- protocol: Inhibition of DNA-dependent protein kinase (DNA-PK) of HeLa cell nuclear cell extract
- Type: cell-free
// pIC50 is dimensionless: -log10 of concentration (M)

| compound | parameter | observed |
| --- | --- | --- |
| N#Cc1cc(-c2ccncc2)c(/C=N/N)nc1O | pIC50 | 4.00 |

Note: attention shifts to another entry.
Problem: Which pIC50 is reported with DNA-dependent protein kinase catalytic subunit (Homo sapiens) for this entry: O=c1cc(N2CCOCC2)oc2c(-c3ccccc3)cccc12 [LY-294002] ?
Solution: 5.85
